target: A disintegrin and metalloproteinase with thrombospondin motifs 5 (Homo sapiens); assay: Inhibition of ADAMTS5 at 1 uM
experimental_readout: inhibition (%)

Reference set, count: 3
- compound: "O=C(O)[C@]1(NS(=O)(=O)c2ccc(-n3cc(Cl)cn3)s2)CC[C@@H]1c1ccccc1 (racemic)"
  test_value: -0.84
- compound: "C[C@H]1C[C@@]1(NS(=O)(=O)c1ccc(-n2cc(Cl)cn2)s1)C(=O)O (racemic)"
  test_value: 3.5
- compound: "CC1(C)C[C@@]1(NS(=O)(=O)c1ccc(-n2cc(Cl)cn2)s1)C(=O)O (racemic)"
  test_value: 19.6

(1) O=C(O)[C@]1(NS(=O)(=O)c2ccc(-n3cc(Cl)cn3)s2)C[C@@H]1Cc1ccccc1 (racemic)
(2) O=C(O)[C@]1(NS(=O)(=O)c2ccc(-c3ccccc3Cl)s2)C[C@@H]1c1ccccc1
Compare reported inhibition values for 1 and 2 . Which is lower? Pick one and reply with its label.
1
(1: 25%, 2: 48%)
